MEASURED TARGET: ERα (Homo sapiens)
Construct: host or cells: MCF-7
Sequence (P03372 1-595): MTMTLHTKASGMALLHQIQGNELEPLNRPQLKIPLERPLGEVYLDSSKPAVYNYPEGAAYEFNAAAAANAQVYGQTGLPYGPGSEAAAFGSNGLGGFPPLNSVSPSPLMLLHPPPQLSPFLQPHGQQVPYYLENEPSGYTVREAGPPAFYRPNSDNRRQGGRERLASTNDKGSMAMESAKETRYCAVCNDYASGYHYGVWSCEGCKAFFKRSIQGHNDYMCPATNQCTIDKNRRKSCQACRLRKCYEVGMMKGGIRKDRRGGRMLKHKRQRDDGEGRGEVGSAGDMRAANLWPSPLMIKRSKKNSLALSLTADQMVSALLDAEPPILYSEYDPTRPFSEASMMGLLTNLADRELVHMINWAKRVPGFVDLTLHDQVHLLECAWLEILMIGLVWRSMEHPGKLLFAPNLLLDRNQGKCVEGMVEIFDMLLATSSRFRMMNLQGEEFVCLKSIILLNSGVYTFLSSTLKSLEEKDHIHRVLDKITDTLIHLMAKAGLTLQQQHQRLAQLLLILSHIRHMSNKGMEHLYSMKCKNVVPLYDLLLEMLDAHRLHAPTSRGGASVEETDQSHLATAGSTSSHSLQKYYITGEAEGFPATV
ASSAY INFO: ER degradation activity in MCF-7 cells (Western blot, grayscale intensity)
Type: cell-based
MEASUREMENT SETUP: 6 hours treatment, 1 nM to 100 nM, concentration required to degrade 50% of the target protein
The compounds listed here are annotated with their DC50.

compound="CC1(C)CC(=C(c2ccc(N3CCC(CN4CCN(c5ccc6c(c5)C(=O)N(C5CCC(=O)NC5=O)C6)CC4)CC3)nc2)c2ccc3[nH]nc(F)c3c2)CC(C)(C)O1 (stereo not drawn)" observed="> 100 nM"

Read the next record carefully.
Data request: Return the recorded DC50 value; entry: `CC1(C)CC(=C(c2ccc(N3CCC4(CC3)CC(N3CCN(c5ccc(C(=O)N[C@H]6CCC(=O)NC6=O)c(F)c5)CC3)C4)nc2)c2ccc3[nH]nc(F)c3c2)CC(C)(C)O1`
Data returned: 10 to 100 nM

---

MEASURED TARGET: ERα (Homo sapiens)
Construct: host or cells: MCF-7
ASSAY INFO: ER degradation activity in MCF-7 cells (Western blot, grayscale intensity)
Type: cell-based
MEASUREMENT SETUP: 6 hours treatment, 1 nM to 100 nM, concentration required to degrade 50% of the target protein
ENDPOINT: DC50

Observe how each entry below is paired with its result.
molecule="Cn1nc(N2CCC(=O)NC2=O)c2ccc(C3CCN(CC(=O)N4CC5(C4)CN(c4ccc(C(=C6CC(C)(C)OC(C)(C)C6)c6ccc7[nH]nc(F)c7c6)cn4)C5)CC3)cc21 [Compound 95]" measured_target="ERα (Homo sapiens)" observed="> 0.1 µM"
molecule="CC1(C)CC(=C(c2ccc(N3CC(CN4CCN(c5ccc6c(c5)C(=O)N(C5CCC(=O)NC5=O)C6=O)CC4)C3)nc2)c2ccc3[nH]nc(F)c3c2)CC(C)(C)O1 (stereo not shown) [Compound 27]" measured_target="ERα (Homo sapiens)" observed="0.01 to 0.1 µM"

Data request: Return the recorded DC50 value; entry: CC1(C)CC(=C(c2ccc(N3CCN(CC4CN(c5ccc6c(c5)C(=O)N(C5CCC(=O)NC5=O)C6=O)C4)CC3)cc2)c2ccc3[nH]nc(F)c3c2)CC(C)(C)O1 (stereo not shown) [Compound 1]
Data returned: > 0.1 µM

Data request: Return the recorded DC50 value; entry: CC1(C)CC(=C(c2ccc(N3CCC4(CC3)CN(C3CCN(c5ccc6c(c5)CN([C@@H]5CCC(=O)NC5=O)C6=O)CC3)C4)nc2)c2ccc3[nH]nc(F)c3c2)CC(C)(C)O1 [Compound 140]
Data returned: < 0.01 µM

Data request: Return the recorded DC50 value; entry: Cn1c(=O)n(C2CCC(=O)NC2=O)c2cccc(C3CCN(CC4CCN(c5ccc(C(=C6CC(C)(C)OC(C)(C)C6)c6ccc7[nH]nc(F)c7c6)cn5)CC4)CC3)c21 (stereo not shown) [Compound 99]
Data returned: 0.01 to 0.1 µM

Data request: Return the recorded DC50 value; entry: CC1(C)CC(=C(c2ccc3[nH]nc(F)c3c2)c2c(F)cc(N3CCC(CN4CCN(c5ccc6c(c5)C(=O)N(C5CCC(=O)NC5=O)C6=O)CC4)CC3)cc2F)CC(C)(C)O1 (stereo not shown) [Compound 12]
Data returned: 0.01 to 0.1 µM

Data request: Return the recorded DC50 value; entry: CC1(C)CC(=C(c2ccc(N3CCC(CN4CCN(c5ccc6c(c5)C(=O)N([C@@H]5CCC(=O)NC5=O)C6=O)CC4)CC3)cc2)c2ccc3[nH]ncc3c2)CC(C)(C)O1 [Compound 130]
Data returned: < 0.01 µM

Data request: Return the recorded DC50 value; entry: CC1(C)CC(=C(c2ccc(N3CCC(CN4CCN(c5ccc6c(c5)CN([C@@H]5CCC(=O)NC5=O)C6=O)CC4)CC3)nc2)c2ccc3[nH]nc(F)c3c2)CC(C)(C)O1 [Compound 119]
Data returned: < 0.01 µM

Data request: Return the recorded DC50 value; entry: CC1(C)CC(=C(c2ccc3[nH]nc(F)c3c2)c2c(F)cc(OC3CN(CC4CCN(c5ccc6c(c5)C(=O)N(C5CCC(=O)NC5=O)C6=O)CC4)C3)cc2F)CC(C)(C)O1 (stereo not shown) [Compound 24]
Data returned: 0.01 to 0.1 µM

Data request: Return the recorded DC50 value; entry: CC1(C)CC(=C(c2ccc(N3CCC(CN4CCN(c5ccc6c(c5)CN(C5CCC(=O)NC5=O)C6=O)CC4)CC3)nc2)c2ccc3[nH]ncc3c2)CC(C)(C)O1 (stereo not shown) [Compound 39]
Data returned: < 0.01 µM
